Tested on: Escherichia coli TOP10;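 also: peptides expressed intracellularly from a pBAD plasmid library in pooled LB shake-flask culture, induced with 0.3% L-arabinose, DNA abundance read by NGS, three biological replicates, DESeq2 with apeglm shrinkage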
Experiment: shrunken log2 fold change of peptide-encoding DNA abundance (4.5 h post-induction vs induction); higher = less antimicrobial activity (less host growth inhibition)
Conditions: time post-induction: 4.5 h; library: site-saturation at positions 5, 18, 19, 20
property: shrunken log2 fold change
Answers are plain numbers.

Take a look at these entries with their results.
>>> recorded_number("RRIRKRPPRLPRPRPRPPPSPRP")
0.911
>>> recorded_number("RRIRSRPPRLPRPRPRPCTVPRP")
-0.253
>>> recorded_number("RRIRWRPPRLPRPRPRPPGIPRP")
0.41
>>> recorded_number("RRIRDRPPRLPRPRPRPRRDPRP")
0.492
>>> recorded_number("RRIRGRPPRLPRPRPRPSRMPRP")
0.22

For every item in the list below, what is its measured shrunken log2 fold change?
1. RRIRNRPPRLPRPRPRPHDKPRP
2. RRIRNRPPRLPRPRPRPDEWPRP
3. RRIRQRPPRLPRPRPRPGEQPRP
4. RRIRTRPPRLPRPRPRPISQPRP
5. RRIRYRPPRLPRPRPRPFWRPRP
6. RRIRWRPPRLPRPRPRPQLYPRP
7. RRIRVRPPRLPRPRPRPKHKPRP

Result:
[-0.313, 0.0842, 0.201, -0.0474, 0.0184, 0.185, -0.114]
